Let's look at some molecules and their measured activity change, negative = inhibition.
Test: AP1 Signaling Pathway (AID 357);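 also: ME-180 reporter cells stimulated with EGF at its EC50 level; % is scaled to controls: 0 for no effect and ±100 for the full control effect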
Settings: ME-180 AP-1-bla reporter, EGF-induced, beta-lactamase ratio, 5 h; at 7.69 µM (top of the series) unless noted
Inconclusive results are not listed. Activity calls are given as the source filed them. Calls follow the shape of the dose curve; as a rule, active = well fitted curve in either direction with a large enough effect (not every such curve was filed as active); inconclusive = small, poorly fitted or top-dose-only effect, or another doubt; inactive = flat fitted curve, though single readings scatter.

SMI: O[C@@H](COc1cccc2ccccc12)CN1CCOCC1
activity change, negative = inhibition: 3.83% (inactive)
--
SMI: Nc1c2c(nc3ccccc13)CCC[C@H]2O
activity change, negative = inhibition: 1.75% [at 38 µM] (inactive)
--
SMI: Cc1cccc2cc3ccc4ccccc4c3cc12
activity change, negative = inhibition: -0.591% (inactive)
--
SMI: Cc1ccccc1S(=O)(=O)O[C@@H]1NS(=O)(=O)c2ccccc21
activity change, negative = inhibition: 6.97% (inactive)
--
SMI: N#CCCn1c(=O)c(-c2ccccc2)nc2cnc(Oc3ccccc3)nc21
activity change, negative = inhibition: -22.6% (inactive)
--
SMI: C[N+]1(CCCC[N+]2(C)CCCCCCC2)CCCCCCC1
activity change, negative = inhibition: 0.612% (inactive)

* * *

Assay: Cellular Toxicity (caspase-3) Hek293 (AID 664);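 also: cells exposed to compound for 16 h at 37 °C before readout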
Details: HEK293 caspase-3 activation, DMSO = 0%, 100 µM tamoxifen = 100%; at 92.2 µM (top of the series)
Records with an inconclusive call do not appear. The source made the active and inactive calls. Calls follow the shape of the dose curve; as a rule, active = well fitted activation curve with a large enough effect; inconclusive = small, poorly fitted or top-dose-only effect; inactive = flat fitted curve, though single readings scatter.
VALUE TYPE: caspase-3 activation

COMPOUND: Oc1cc(Cl)cc(Cl)c1Cl
VALUE TYPE: caspase-3 activation
ASSAY VALUE: -0.269% (inactive)
//
COMPOUND: c1ccc2c(c1)ccc1ccccc12
VALUE TYPE: caspase-3 activation
ASSAY VALUE: -0.803% (inactive)
//
COMPOUND: CC(CCC(=O)O)(c1ccc(O)cc1)c1ccc(O)cc1
VALUE TYPE: caspase-3 activation
ASSAY VALUE: 1.18% (inactive)
//
COMPOUND: C=C(C#N)C(=O)OCC
VALUE TYPE: caspase-3 activation
ASSAY VALUE: -3.19% (inactive)
//
COMPOUND: O=[N+]([O-])c1ccccc1Nc1ccccc1
VALUE TYPE: caspase-3 activation
ASSAY VALUE: -0.0405% (inactive)
//
COMPOUND: Oc1ccc2c(c1)OCO2
VALUE TYPE: caspase-3 activation
ASSAY VALUE: -2.85% (inactive)
//
COMPOUND: OC1CCCCC1
VALUE TYPE: caspase-3 activation
ASSAY VALUE: -0.682% (inactive)
//
COMPOUND: Cc1c(N)cccc1Cl
VALUE TYPE: caspase-3 activation
ASSAY VALUE: 0.378% (inactive)
//
COMPOUND: O=C=Nc1ccc(Cl)c(Cl)c1
VALUE TYPE: caspase-3 activation
ASSAY VALUE: 9.15% (inactive)
//
COMPOUND: CCCCCCCCC1CO1 (configuration not stated)
VALUE TYPE: caspase-3 activation
ASSAY VALUE: 0.315% (inactive)
//
COMPOUND: Oc1cc2c(cc1O)[C@H]1c3ccc(O)c(O)c3OC[C@@]1(O)C2
VALUE TYPE: caspase-3 activation
ASSAY VALUE: 0.207% (inactive)
//
COMPOUND: c1ccc(Nc2cccc3ccccc23)cc1
VALUE TYPE: caspase-3 activation
ASSAY VALUE: 4.83% (inactive)
//
COMPOUND: O=C(O)c1ccc([N+](=O)[O-])cc1
VALUE TYPE: caspase-3 activation
ASSAY VALUE: 10.3% (inactive)
//
COMPOUND: Cc1ccc(C(=O)O)cc1[N+](=O)[O-]
VALUE TYPE: caspase-3 activation
ASSAY VALUE: -1.69% (inactive)
//
COMPOUND: CCCCCCN
VALUE TYPE: caspase-3 activation
ASSAY VALUE: 1.72% (inactive)
//
COMPOUND: C/C(Cl)=C/CCl
VALUE TYPE: caspase-3 activation
ASSAY VALUE: -0.884% (inactive)
//
COMPOUND: Cc1ccc(N)cc1[N+](=O)[O-]
VALUE TYPE: caspase-3 activation
ASSAY VALUE: -1.57% (inactive)
//
COMPOUND: OCC(CBr)(CBr)CBr
VALUE TYPE: caspase-3 activation
ASSAY VALUE: 0.713% (inactive)
//
COMPOUND: O=C(O)/C=C/c1ccc(/C=C/C(=O)O)cc1
VALUE TYPE: caspase-3 activation
ASSAY VALUE: -11.2% (inactive)
//
COMPOUND: c1ccc(SCCSc2ccccc2)cc1
VALUE TYPE: caspase-3 activation
ASSAY VALUE: 0.456% (inactive)
//
COMPOUND: CCC(Cl)CC(Cl)C(Cl)C(Cl)C(Cl)C(C)Cl (configuration not stated)
VALUE TYPE: caspase-3 activation
ASSAY VALUE: 5.41% (inactive)
//
COMPOUND: Oc1ccc(O)c2c(O)cccc12
VALUE TYPE: caspase-3 activation
ASSAY VALUE: 18% (inactive)
//
COMPOUND: CCCC(=O)OC(=O)CCC
VALUE TYPE: caspase-3 activation
ASSAY VALUE: 0.516% (inactive)
//
COMPOUND: O=[N+]([O-])c1cccc(I)c1
VALUE TYPE: caspase-3 activation
ASSAY VALUE: -1.61% (inactive)
//
COMPOUND: CN(C)c1ccc(Cc2ccc(N(C)C)cc2)cc1
VALUE TYPE: caspase-3 activation
ASSAY VALUE: 2.63% (inactive)
//
COMPOUND: c1ccc(CSCc2ccccc2)cc1
VALUE TYPE: caspase-3 activation
ASSAY VALUE: 0.61% (inactive)
//
COMPOUND: Brc1ccc(-c2ccccc2)cc1
VALUE TYPE: caspase-3 activation
ASSAY VALUE: -0.717% (inactive)
//
COMPOUND: Nc1cc(C(=O)O)c(O)c(S(=O)(=O)O)c1
VALUE TYPE: caspase-3 activation
ASSAY VALUE: 0.407% (inactive)
//
COMPOUND: Cc1cc2nc(N)sc2cc1C
VALUE TYPE: caspase-3 activation
ASSAY VALUE: -7.89% (inactive)
//
COMPOUND: Nc1ccccc1O
VALUE TYPE: caspase-3 activation
ASSAY VALUE: 4.27% (inactive)
//
COMPOUND: CC(C)(C)C(=O)C1C(=O)c2ccccc2C1=O
VALUE TYPE: caspase-3 activation
ASSAY VALUE: -1.93% (inactive)
//
COMPOUND: CCOc1ccc2nc(N)sc2c1
VALUE TYPE: caspase-3 activation
ASSAY VALUE: 2.81% (inactive)

* * *

Let's look at some compounds and their measured activity, negative = inhibition.
Assay: Stat Signaling Pathway (AID 446);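 also: ME-180 cervical cancer cells given 40 pM IL-6 alongside compound; SIE-controlled beta-lactamase reporter measured as 460/530 nm FRET emission ratio; % is scaled to controls: 0 for no effect and ±100 for the full control effect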
Conditions: ME-180 SIE beta-lactamase reporter, IL-6 stimulated, 5 h; at 7.69 µM (top of the series) unless noted
Records with an inconclusive call do not appear.

SMI: CN(CCC(=O)O)S(=O)(=O)c1ccccc1
UNIT TEXT: %
activity, negative = inhibition: 11.1
--
SMI: Cc1nc2cnc(N3CCOCC3)nc2n(Cc2cccs2)c1=O
UNIT TEXT: %
activity, negative = inhibition: -5.33
--
SMI: CN(C)CCSS(=O)(=O)O
UNIT TEXT: %
activity, negative = inhibition: -1.46
--
SMI: Cc1ccc(S(=O)(=O)Nc2ccccc2C=O)cc1
UNIT TEXT: %
activity, negative = inhibition: 24
--
SMI: Ic1ccc2c(c1)N(c1ccccc1)c1cc(Nc3ccc4nc5ccc(I)cc5[n+](-c5ccccc5)c4c3)ccc1N2
UNIT TEXT: %
activity, negative = inhibition: -4.86
--
SMI: COc1ncc2nc(-c3cc(F)cc(F)c3)c(=O)n(C[C@H]3CCCO3)c2n1
UNIT TEXT: %
activity, negative = inhibition: -4.03

* * *

Experiment: Stat Signaling Pathway (AID 446);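 also: ME-180 cervical cancer cells given 40 pM IL-6 alongside compound; SIE-controlled beta-lactamase reporter measured as 460/530 nm FRET emission ratio; % is scaled to controls: 0 for no effect and ±100 for the full control effect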
Settings: ME-180 (cervical carcinoma) SIE beta-lactamase reporter, IL-6 stimulated, 5 h; at 7.69 µM (top of the series) unless noted
Inconclusive results are not listed.
Let's look at some molecules and their measured activity, negative = inhibition.

SMI: O=C(O)c1ccc(/C=N\N=C2c3ccccc3-c3ccccc32)cc1
UNIT TEXT: %
activity, negative = inhibition: -6.87
--
SMI: C[C@@]12CC[C@H]3[C@H](CC=C4C[C@@H](O)CC[C@@]43C)[C@@H]1CC[C@@H]2N(CCO)CCO
UNIT TEXT: %
activity, negative = inhibition: 18.7
--
SMI: O=C(O)c1ccccc1-c1ccccc1C(=O)Nc1ccc2c(c1)Cc1ccccc1-2
UNIT TEXT: %
activity, negative = inhibition: -24.1
--
SMI: CC(=O)O[C@H]1CC[C@@]2(C)[C@@H](CC[C@H]3[C@H]2CC(=O)[C@@]2(C)[C@@H]3C[C@H]3CC(C)=CC(=O)[C@H]32)C1
UNIT TEXT: %
activity, negative = inhibition: -1.11
